system: LOX IMVI melanoma; assay: NCI tumour cell line growth inhibition, 48 h; in the data active means GI50 below about 0.43 µM; inactive means the rest
Classes used: active, inactive

• NC(N)=N/N=C/c1ccc(-c2ccc(-c3cc(Cl)cc(Cl)c3)s2)cc1 = inactive
• COc1cc(-c2cc(-c3cc(OC)c(OC)c(OC)c3)nc3nc(N)[nH]c(=O)c23)ccc1Oc1ccnc2cc(Cl)ccc12 = inactive
• N#C[Se]CCCNS(=O)(=O)C1CC2C=CC1C2 (stereo not given) = active
• Clc1ccc(-c2cc(-c3ccccc3)nc(NCCNc3ccnc4cc(Cl)ccc34)n2)cc1 = inactive
• CC(=O)[CH-]C(=O)c1ccccc1.CC(=O)[CH-]C(=O)c1ccccc1.C[C@]12CCC(=O)C=C1CC[C@@H]1C2CC[C@@]2(C)C1CC[C@@H]2[O-].C[C@]12CCC(=O)C=C1CC[C@@H]1C2CC[C@@]2(C)C1CC[C@@H]2[O-].Cl.[Ti+4] (stereo not given in full) = inactive
• Cc1ccc(NC(=O)c2sc3nc4c(cc3c2N)C(=O)CCC4)cc1C = inactive
• COc1ccc(C2C(C)C(=O)C(C)C(c3ccc(OC)cc3)N2N=O)cc1 (stereo not given) = inactive
• COc1cc([C@@H]2C[C@H]2c2cc(SC)n[nH]2)cc(OC)c1OC = inactive
• OCc1ccc(N2CCc3ccccc3C2)cc1Cl = inactive
• c1ccc2cc(C[n+]3ccn(CCCCCCCCCCn4cc[n+](Cc5ccc6ccccc6c5)c4)c3)ccc2c1 = inactive

----------
test system: SF-268 CNS; test: NCI tumour cell line growth inhibition, 48 h
QUANTITY MEASURED: TGI

- CCOc1cccc(-c2nc(N)nc(Nc3ccccc3SSc3ccccc3Nc3nc(N)nc(-c4cccc(OCC)c4)n3)n2)c1: > 100 µM
- Clc1ccc(-c2c(C3=NCCCN3)nnn2-c2ccccc2)cc1: > 100 µM
- COC(=O)[C@H](CC(C)C)Nc1c(O)c2c(c(O)c1Cl)C(=O)C=CC2=O: > 10 µM

----------
Consider the following compounds and their measured GI50 readings.
system: SK-MEL-2 melanoma; assay: NCI tumour cell line growth inhibition, 48 h
QUANTITY MEASURED: GI50

* C[C@@H](Oc1ccc(C(=O)NS(=O)(=O)C(C)(C)C)cc1C(F)(F)F)c1ccc(Oc2ccccc2)cn1 | 6.56 µM
* CC(=O)OC12COC1CC(O)C1(C)C(=O)C(O)C3=C(C)C(O)CC(O)(C(OC(=O)c4ccccc4)C21)C3(C)C (stereo unspecified) | 1.84 µM
* CCCCCCCCC(=O)OCC(CS[As](C)C)OC(=O)CCCCCCCC (stereo unspecified) | 13.2 µM
* COc1cc(/C=C/C(=O)N2CCN(C(=O)c3cc(OC)c(OC)c(OC)c3)CC2)ccc1OCCCOc1cc2c(cc1OC)C(=O)N1CCC[C@H]1C=N2 | 0.26 µM
* COc1ccc(/C=C2\C=C(c3ccccc3)N(CCc3ccccc3)C2=O)cc1OC | 18.5 µM
* Cc1cc(N(CCCl)CCCl)ccc1C=Nc1ccc2ccccc2c1 | 40 µM

----------
test system: SF-268 CNS; experiment: NCI tumour cell line growth inhibition, 48 h
*1 amine or outer side, *2 acyl side, *3 side chain or, on linkers, in order; H or OH if unused. Where a SMILES comes first, the peptide text is derived from it. [ ]: non-standard residue; d: D form. The star is where a group is joined. X31 = CC(=O)N(C)SCC(N[*:1])C(=O)[*:2]; Cbz = O=C(OCc1ccccc1)*; Bn = c1ccc(C*)cc1
QUANTITY MEASURED: TGI

- COc1ccccc1NC(=O)c1nc2ccc([N+](=O)[O-])cc2nc1C: > 100 µM
- CC(C)NC(=O)CCN(C(=O)O)S(=O)(=O)c1ccc(NC(=O)c2ccccc2)cc1: > 100 µM
- CC#CC1C2CCCC1(CSc1ccccc1)NC(=O)O2 (centres undefined): > 100 µM
- COc1ccc(C(=O)/C=C/c2ccc(OCCSCCCCCCCCCCSCCOc3ccc(/C=C/C(=O)c4ccc(OC)c(OC)c4)cc3)cc2)cc1OC: > 100 µM
- O=C(O)c1ccc(C(=O)O)c(C(=O)Nc2ccc3c(c2)C(=O)c2ccccc2-3)c1: > 100 µM
- Cc1ccc(C)c(/C=C2\CN(C(=O)OC(C)(C)C)C/C(=C\c3cc(C)ccc3C)C2=O)c1: > 100 µM
- COc1ccc(/C=C2\C=C(c3ccccc3)N(CCc3ccccc3)C2=O)cc1OC: 26.5 µM
- COc1cc2c(cc1OC)C1Cc3cc(OC)c(OC)cc3C(C2)N1C: > 100 µM
- COc1cc(C2C(Cl)C(=O)N2NC(=O)c2ccc(N)cc2)cc(Br)c1O (centres undefined): 19.7 µM
- COc1cc(C(=O)Nc2cc(OC)c3ccn(C)c3c2)cc2c1C[C@]1(C)CC[C@@H](O)C(C)(C)[C@H]1O2: > 100 µM
- CCN1Cc2nc3sc(C)c(C)c3c(=O)n2C=C1C: 36.2 µM
- O=Cc1ccc(CCl)cc1: 66.9 µM
- COc1cc(-c2c(C#N)c(N)nc(N3CCOCC3)c2C#N)cc(OC)c1OC: > 100 µM
- COc1cc(/C=C2\C[C@H]3[C@@H]4CC=C5C[C@@H](O)CC[C@]5(C)[C@H]4CC[C@]3(C)[C@H]2O)ccc1OCCCn1ccnc1: 19.2 µM
- COc1ccc2cc(-c3nc(N)nc(N4N=C(C)CC4(C)C)n3)c(=N)oc2c1: 33.8 µM
- O=C(Nc1cccc2c1[nH]c1c(-c3ccccc3)nccc12)c1ccccc1[N+](=O)[O-]: > 100 µM
- O=C(CCCl)NNC1=NCCCN1: > 100 µM
- CC(=O)N(C)SCC(NC(=O)C(Cc1ccccc1)NC(=O)OCc1ccccc1)C(=O)NC(Cc1ccccc1)C(=O)NC(Cc1c[nH]c2ccccc12)C(=O)NC(CCCCNC(=O)OCc1ccccc1)C(=O)NC(C(=O)NC(CSN(C)C(C)=O)C(=O)NC(C(N)=O)C(C)OCc1ccccc1)C(C)OCc1ccccc1 (centres undefined) (Cbz-F[X31]FWK(Cbz)T(Bn)[X31]T(Bn)-NH2; configuration not given here): > 100 µM
- CN1CCC2(CC1)C(=NC1CCCCC1)NC(=S)N2c1ccccc1: > 100 µM
- COc1ccc(/C=C2\CCC/C(=C\c3ccc(O)c(CN4CCCCC4)c3)C2=O)cc1: 13.1 µM
- Clc1ccc(-c2cc(-c3ccccc3)nc(NCCNc3ccnc4cc(Cl)ccc34)n2)cc1: 3.8 µM
- COc1ccc(C2C(C)C(=O)C(C)C(c3ccc(OC)cc3)N2N=O)cc1 (centres undefined): > 1000 µM
- CC(=O)N1N=C2/C(=C/c3ccc(Cl)cc3)CC(C)CC2C1c1ccc(Cl)cc1 (centres undefined): 73.4 µM
- C1CC[C@H]2SSC3CCCC[C@H]3SSC2C1 (some centres undefined): > 100 µM
